- Tested on: PPARg:RXRa 30nM:10nM, anti-RXR (NR concentration 30 nM, RXRa partner concentration 10 nM)
- Assay Info: PBM binding z-score (relative to random genomic background probes); higher = stronger binding; sequences stand for … in GC…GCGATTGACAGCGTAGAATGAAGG
# binarize PBM binding z-score: threshold 0.8 inclusive, high side 1.0, low side 0.0

State whether the measured PBM binding z-score reaches 0.8, counting equality as reaching it, for `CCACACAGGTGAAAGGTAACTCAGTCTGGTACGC`
1.0

Same question, `ATATGTAGGTTATCGGGTCTTTCAGTTTGCGCAT` this time
1.0

Same question, `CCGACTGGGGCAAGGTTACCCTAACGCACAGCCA` this time
0.0

Same question, `AGAATGAGGTTATTAAGATCAGGGGATTGCGGTC` this time
0.0

Same question, `CCTTACGGGTCACTCCAGGTTACAGCATCGGAGT` this time
1.0

Same question, `ATCTATAGGTAAGACTCAGTTCAGTGAAGAACGC` this time
0.0

Same question, `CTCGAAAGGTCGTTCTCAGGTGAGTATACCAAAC` this time
1.0

Same question, `GCTAGCACGCCATTTGGGTCACTCAATGACGGGC` this time
0.0
